Recorded values, source PubChem BioAssay (NCI).

- System: LOX IMVI melanoma
- Method: NCI tumour cell line growth inhibition, 48 h
Each entry below lists one item and its recorded TGI value.

Known results for compounds:
CC(C)=Cc1cccc2[nH]c(O)c(N=Nc3ccc(S(N)(=O)=O)cc3)c12 :: > 25 µM
FC(F)(F)c1nc(SCc2ccc(Cl)cc2)n[nH]1 :: > 100 µM

Inquiry: So what TGI did O=[N+]([O-])c1ccc(N=Nc2c(Cl)cc(O)cc2Cl)cc1 get with LOX IMVI melanoma?
Reply text: 10.6 µM

---

- Tested on: EKVX NSCLC
- Method: NCI tumour cell line growth inhibition, 48 h
Readout Name: TGI

CCOc1cc(C2SCC(=O)N2c2ccc3c(c2)Oc2c(Cl)c4c(c(Cl)c2=N3)Oc2cc(N3C(=O)CSC3c3ccc(O)c(OCC)c3)ccc2N=4)ccc1O (stereo unspecified) :: > 100 µM
CCCCc1nc(C)oc1C(C)C :: > 100 µM
O=C(c1ccc2ccccc2c1)c1c(C(F)(F)F)n([O-])c2cc(C(F)(F)F)ccc2[n+]1=O :: 3.43 µM
COc1ccc(C[C@]23CCC(=O)N2CCc2cc(OC)c(O)cc23)cc1O :: > 100 µM
CC1=C(SCCO)C(=O)c2ccccc2C1=O :: 27.5 µM

Inquiry: // lookup TGI for C=CCCCN1CCCCC1=S
Reply text: > 100 µM

Inquiry: // lookup TGI for c1ccc(SCCc2ccncc2)cc1
Reply text: > 100 µM

---

- Tested on: MDA-MB-435
- Method: NCI tumour cell line growth inhibition, 48 h
Readout Name: TGI

O=S(=O)(O)c1cc(S(=O)(=O)O)c2c(N=Nc3ccc(S(=O)(=O)O)c4ccccc34)c(O)ccc2c1 :: > 100 µM
CCOC(=O)/C(=C\c1cn(C(C)=O)c2ccccc12)P(C)(=O)OCC (centres undefined) :: > 100 µM
CN(CCNC(=O)c1nn(-c2ccc(Cl)cc2Cl)c2c1Cc1ccccc1-2)CCNC(=O)c1nn(-c2ccc(Cl)cc2Cl)c2c1Cc1ccccc1-2 :: 2.43 µM
O=C1c2cc3c(cc2-c2c1c1ccc(F)cc1c(=O)n2C[C@H](O)[C@H](O)[C@H](O)CO)OCO3 :: 0.409 µM
COc1cc2c3c(n(CCCn4cncn4)c(=O)c2cc1OC)-c1cc2c(cc1C3=O)OCO2 :: > 100 µM
CCOC(=O)C(NC(=O)c1ccccc1)(c1ccc(S(=O)(=O)Nc2onc(C)c2C)cc1)C(F)(F)F (centres undefined) :: > 100 µM
CCc1[nH]nc(C(N)=O)c1N=NN(C)C :: > 100 µM
Cc1oc2nc(N(C)C)nc(NN)c2c1C :: > 100 µM

Now consider a different compound.
Inquiry: // lookup TGI for CCOc1ccccc1Nc1ccc(N)cc1S(=O)(=O)O
Reply text: > 100 µM

---

- Test system: A549 NSCLC
- Method: NCI tumour cell line growth inhibition, 48 h
Each entry below lists one item and its recorded TGI value.
Expressed in µM, but write only the number.

CCCS(=O)(=O)Nc1cccc(Nc2ncnc3cc(NC(=O)CCl)ccc23)c1Cl :: 10.1

Now consider a different compound.
Inquiry: // lookup TGI for COc1ccc2c(c1)C(=O)c1c-2c(N2CCN(C(=O)CCNCCNCCN)CC2)nc2ccccc12
Reply text: 29.4

---

- Test system: MCF7 breast
- Method: NCI tumour cell line growth inhibition, 48 h; in the data active = GI50 below about 0.43 µM; inactive = the rest
Give one outcome, nothing more. List: Yes for active, No for inactive

Example entries begin here.
CCc1cccc(NC(=O)Nc2ccc(Oc3ccc4nc(NC(=O)OC)[nH]c4c3)cc2)c1 :: No
O=C(CCCC(=O)N/N=C/c1cc(Cl)ccc1O)N/N=C\c1cc(Cl)ccc1O :: No

Inquiry: Which outcome did this test record for the compound CCN(CC)CCn1c(=O)c2cc(OC)c(OC)cc2c2ccc3cc4c(cc3c21)OCO4 ?
Reply text: Yes

Inquiry: Which outcome did this test record for the compound Cc1ccc2[nH]c(C(=O)NN3C(=O)C(C)SC34CCC(C)CC4)c(-c3ccccc3)c2c1 (stereo unspecified) ?
Reply text: No

Inquiry: Which outcome did this test record for the compound C/C(CC(C)(C)N1CC1)=N\NC(=O)Nc1cccc2ccccc12 ?
Reply text: No

Inquiry: Which outcome did this test record for the compound Cc1nc2ccccc2c(/C=C/c2ccccc2)c1C(=O)/C=C/c1ccc(C(F)(F)F)cc1 ?
Reply text: No

Inquiry: Which outcome did this test record for the compound CCCS(=O)(=O)Nc1cccc(Nc2ncnc3cc(NC(=O)CCl)ccc23)c1Cl ?
Reply text: No

Inquiry: Which outcome did this test record for the compound CC1=C2[C@@H](CC1)[C@]1(C)O[C@@](C(C)C)(C[C@H]1OC(=O)CO)[C@H]2OC(=O)CCCc1ccccc1 ?
Reply text: No

Inquiry: Which outcome did this test record for the compound O=C(Nc1cccc(C(F)(F)F)c1)c1ccc(NC2=C(Cl)C(=O)N(Cc3ccccc3)C2=O)cc1 ?
Reply text: No

Inquiry: Which outcome did this test record for the compound CCOC(=O)Nc1ccc2c(c1)C(=O)N(CC)c1ccccc1O2 ?
Reply text: Yes

Inquiry: Which outcome did this test record for the compound CCOC(=O)c1c2c(n3ccc(NC(=O)CCN4CCCCC4)cc13)C(=O)c1ncccc1C2=O ?
Reply text: Yes
